FYI, the data here is from patent US20240246960A1.

Target: pDNA-PK ser2056 induction in HCT116 spheroids (Homo sapiens, UniProt P78527)
Construct: endogenous in cells; host or cells: HCT116 multicellular tumour spheroids
Experiment: Multicellular tumour spheroid + radiation, pDNA-PK inhibition, HCT116
Type: cell-based
Details: Example 8; spheroid; 20 Gy; read-out: Cell line: HCT116 Immunohistochemical endpoint pDNA-PK inhibition EC50
pEC50: −log10 of the molar value.
measure: pEC50

For the compound c1cnc(N[C@H]2CC[C@@H](Oc3nc(N4CCOCC4)cc4ncccc34)CC2)nc1 [Compound 20a] , what pEC50 is on record?
6.00 to 6.30

For the compound O=C(N[C@H]1CC[C@@H](Oc2nc(N3CCOCC3)cc3ncccc23)CC1)c1ncccn1 [Compound 123] , what pEC50 is on record?
6.00 to 6.30

For the compound O=C(N[C@H]1CC[C@@H](Oc2nc(N3CCOCC3)cc3ncccc23)CC1)c1ccc(F)cc1 [Compound 111] , what pEC50 is on record?
5.00 to 6.00

For the compound Cc1cnc(N[C@H]2CC[C@@H](Oc3nc(N4CCOCC4)cc4ncccc34)CC2)nc1 [Compound 32] , what pEC50 is on record?
5.00 to 6.00

For the compound O=C(N[C@H]1CC[C@@H](Oc2nc(N3CCOCC3)cc3ncccc23)CC1)N1CCOCC1 [Compound 14] , what pEC50 is on record?
5.00 to 6.00

For the compound FC(F)Oc1cnc(N[C@H]2CC[C@@H](Oc3nc(N4CCOCC4)cc4ncccc34)CC2)nc1 [Compound 35] , what pEC50 is on record?
5.00 to 6.00

###

Assay: Microsomal stability assay, mouse liver microsomes
Conditions: 60 min
measure: Microsomal Stability (mouse) % rem. 60 min

| molecular string | result value |
| --- | --- |
| O=C(N[C@H]1CC[C@@H](Oc2nc(N3CCOCC3)cc3ncccc23)CC1)c1ccccn1 | E (% remaining = 0-25%) |
| COc1ccnc(C(=O)N[C@H]2CC[C@@H](Oc3nc(N4CCOCC4)cc4ncccc34)CC2)n1 | E (% remaining = 0-25%) |
| O=C(N[C@H]1CC[C@@H](Oc2nc(N3CCOCC3)cc3ncccc23)CC1)n1cccn1 | E (% remaining = 0-25%) |

###

Assay: Hepatocyte stability assay, human hepatocytes
Format: in vitro ADME
Conditions: 120 min
measure: Hepatocyte Stability (human) % rem. 120 min

| molecular string | result value |
| --- | --- |
| Cc1nc(N[C@H]2CC[C@@H](Oc3nc(N4CCOCC4)cc4ncccc34)CC2)c2occc2n1 | G (% remaining = 50-75%) |
| Nc1cnc(N[C@H]2CC[C@@H](Oc3nc(N4CCOCC4)cc4ncccc34)CC2)nc1 | G (% remaining = 50-75%) |
| COc1cnc(N[C@H]2CC[C@@H](Oc3nc(N4CCOCC4)cc4ncc(NS(C)(=O)=O)cc34)CC2)nc1 | G (% remaining = 50-75%) |

###

Assign EC50 to each entry below.
Target: pDNA-PK ser2056 induction in HCT116 spheroids (Homo sapiens)
Construct: endogenous in cells; host or cells: HCT116 multicellular tumour spheroids
Experiment: Multicellular tumour spheroid + radiation, pDNA-PK inhibition, HCT116
Type: cell-based
Conditions: Example 7; spheroid, cell line HCT115 [sic]; 20 Gy; 20% O2; read-out: EC50 (pDNA-PK inhibition, immunohistochemical endpoint)

For the compound "COc1ccnc(N[C@H]2CC[C@@H](Oc3nc(N4CCOCC4)cc4ncccc34)CC2)n1" , what EC50 is on record?
1000 to 10000 nM

For the compound Fc1cn([C@H]2CC[C@@H](Oc3nc(N4CCOCC4)cc4ncccc34)CC2)cn1 [Compound 17a] , what EC50 is on record?
1000 to 10000 nM

For the compound "CS(=O)(=O)Nc1cnc2cc(N3CCOCC3)nc(O[C@H]3CC[C@@H](Nc4ncccn4)CC3)c2c1" , what EC50 is on record?
10 to 500 nM

For the compound "Nc1cnc2cc(N3CCOCC3)nc(O[C@H]3CC[C@@H](Nc4ncccn4)CC3)c2c1" , what EC50 is on record?
1000 to 10000 nM

For the compound "c1cnc2cc(N3CCOCC3)nc(O[C@H]3CC[C@@H](Nc4ccc5nccn5n4)CC3)c2c1" , what EC50 is on record?
1000 to 10000 nM

For the compound "CS(=O)(=O)Nc1cnc2cc(N3CCOCC3)nc(O[C@H]3CC[C@@H](n4ccnc4)CC3)c2c1" , what EC50 is on record?
1000 to 10000 nM

For the compound "Cc1cnc(N[C@H]2CC[C@@H](Oc3nc(N4CCOCC4)cc4ncccc34)CC2)nc1" , what EC50 is on record?
1000 to 10000 nM

For the compound "c1cnc2cc(N3CCOCC3)nc(O[C@H]3CC[C@@H](Nc4ncnc5ccsc45)CC3)c2c1" , what EC50 is on record?
10 to 500 nM

For the compound "Nc1cnc(N[C@H]2CC[C@@H](Oc3nc(N4CCOCC4)cc4ncccc34)CC2)nc1" , what EC50 is on record?
10 to 500 nM

For the compound "NC(=O)c1cnc(N[C@H]2CC[C@@H](Oc3nc(N4CCOCC4)cc4ncccc34)CC2)nc1" , what EC50 is on record?
10 to 500 nM

For the compound "COc1ccc(C(=O)N[C@H]2CC[C@@H](Oc3nc(N4CCOCC4)cc4ncccc34)CC2)cc1" , what EC50 is on record?
10 to 500 nM

For the compound "O=C(N[C@H]1CC[C@@H](Oc2nc(N3CCOCC3)cc3ncccc23)CC1)c1cccnc1" , what EC50 is on record?
1000 to 10000 nM

For the compound "FC(F)c1ccnc2cc(N3CCOCC3)nc(O[C@H]3CC[C@@H](Nc4ncccn4)CC3)c12" , what EC50 is on record?
500 to 1000 nM

For the compound "O=C(N[C@H]1CC[C@@H](Oc2nc(N3CCOCC3)cc3ncccc23)CC1)C1(O)CC1" , what EC50 is on record?
10000 to 100000 nM

For the compound "O=C(N[C@H]1CC[C@@H](Oc2nc(N3CCOCC3)cc3ncc(Br)cc23)CC1)c1ncccn1" , what EC50 is on record?
1000 to 10000 nM

For the compound "O=C(N[C@H]1CC[C@@H](Oc2nc(N3CCOCC3)cc3ncccc23)CC1)c1ccccc1" , what EC50 is on record?
1000 to 10000 nM

For the compound "O=C(N[C@H]1CC[C@@H](Oc2nc(N3CCOCC3)cc3ncccc23)CC1)c1ccncc1" , what EC50 is on record?
500 to 1000 nM

For the compound "c1cnc2cc(N3CCOCC3)nc(O[C@H]3CC[C@@H](Nc4cncnc4)CC3)c2c1" , what EC50 is on record?
1000 to 10000 nM

For the compound "CC(C)S(=O)(=O)Nc1cnc2cc(N3CCOCC3)nc(O[C@H]3CC[C@@H](Nc4ncccn4)CC3)c2c1" , what EC50 is on record?
10000 to 100000 nM

For the compound Cc1nc(C(F)(F)F)cn1[C@H]1CC[C@@H](Oc2nc(N3CCOCC3)cc3ncccc23)CC1 [Compound 17i] , what EC50 is on record?
1000 to 10000 nM

For the compound "CC(C)c1cnc(N[C@H]2CC[C@@H](Oc3nc(N4CCOCC4)cc4ncccc34)CC2)nc1" , what EC50 is on record?
1000 to 10000 nM

For the compound "FC(F)(F)c1ccnc(N[C@H]2CC[C@@H](Oc3nc(N4CCOCC4)cc4ncccc34)CC2)n1" , what EC50 is on record?
1000 to 10000 nM

For the compound "O=C(N[C@H]1CC[C@@H](Oc2nc(N3CCOCC3)cc3ncccc23)CC1)c1ccc(F)cc1" , what EC50 is on record?
1000 to 10000 nM

For the compound "O=C(N[C@H]1CC[C@@H](Oc2nc(N3CCOCC3)cc3ncccc23)CC1)C1CC1" , what EC50 is on record?
1000 to 10000 nM

For the compound c1cnc(N[C@H]2CC[C@@H](Oc3nc(N4CCOCC4)cc4ncccc34)CC2)nc1 [Compound 20a] , what EC50 is on record?
500 to 1000 nM

For the compound "c1cnc2cc(N3CCOCC3)nc(O[C@H]3CC[C@@H](Nc4ncc5[nH]ccc5n4)CC3)c2c1" , what EC50 is on record?
10 to 500 nM

For the compound "COc1cnc(N[C@H]2CC[C@@H](Oc3nc(N4CCOCC4)cc4ncc(N)cc34)CC2)nc1" , what EC50 is on record?
1000 to 10000 nM

For the compound Cc1cn([C@H]2CC[C@@H](Oc3nc(N4CCOCC4)cc4ncccc34)CC2)nc1C(F)(F)F [Compound 17e] , what EC50 is on record?
1000 to 10000 nM

For the compound "CCS(=O)(=O)Nc1cnc2cc(N3CCOCC3)nc(O[C@H]3CC[C@@H](Nc4ncccn4)CC3)c2c1" , what EC50 is on record?
1000 to 10000 nM

For the compound "CS(=O)(=O)Nc1cnc(N[C@H]2CC[C@@H](Oc3nc(N4CCOCC4)cc4ncccc34)CC2)nc1" , what EC50 is on record?
500 to 1000 nM

For the compound COc1cnc(N[C@H]2CC[C@@H](Oc3nc(N4CCOCC4)cc4ncccc34)CC2)nc1 [Compound 20c] , what EC50 is on record?
500 to 1000 nM
